test: Oral bioavailability in CD-1 mouse at 10 mg/kg; format: ADME, organism-based; conditions: in vivo
quantity.name: bioavailability (%)

chemical.smiles | result.unit | relation.symbol | endpoint.result
COc1cc(N2CCC(CC(=O)N3CCOCC3)CC2)ccc1Nc1nc(NC2CCCCC2)c2nc[nH]c2n1 | % | = | 23.1
COc1cc(N2CCN(S(=O)(=O)CCCN3CCOCC3)CC2)ccc1Nc1nc(NC2CCCCC2)c2nc[nH]c2n1 | % | = | 17.9
COc1cc(N2CCC(N3CCOCC3)CC2)ccc1Nc1nc(NC2CCCCC2)c2nc[nH]c2n1 | % | = | 31
COc1cc(N2CCC(CN3CCOCC3)CC2)ccc1Nc1nc(NC2CCCCC2)c2nc[nH]c2n1 | % | > | 83
COc1cc(N2CCC(CC(=O)N3CCCC3)CC2)ccc1Nc1nc(NC2CCCCC2)c2nc[nH]c2n1 | % | = | 36
COc1cc(N2CCC(CC(=O)N3CCN(C)CC3)CC2)ccc1Nc1nc(NC2CCCCC2)c2[nH]cnc2n1 | % | = | 6.9
Cc1cc(N2CCOCC2)ccc1Nc1nc(NC2CCCCC2)c2nc[nH]c2n1 | % | = | 20

====

assay: AUC in CD-1 mouse at 10 mg/kg, po; type: ADME, organism-based; design: dose 10 mg/kg, route oral; details: plasma
quantity.name: AUC (ng·h/mL)

chemical.smiles | endpoint.result
COc1cc(N2CCC(CC(=O)N3CCCC3)CC2)ccc1Nc1nc(NC2CCCCC2)c2nc[nH]c2n1 | 1770
COc1cc(N2CCC(CN3CCOCC3)CC2)ccc1Nc1nc(NC2CCCCC2)c2nc[nH]c2n1 | 10700
COc1cc(N2CCC(CC(=O)N3CCOCC3)CC2)ccc1Nc1nc(NC2CCCCC2)c2nc[nH]c2n1 | 1650
COc1cc(N2CCC(CC(=O)N3CCN(C)CC3)CC2)ccc1Nc1nc(NC2CCCCC2)c2[nH]cnc2n1 | 547
COc1cc(N2CCN(S(=O)(=O)CCCN3CCOCC3)CC2)ccc1Nc1nc(NC2CCCCC2)c2nc[nH]c2n1 | 1730
COc1cc(N2CCC(N3CCOCC3)CC2)ccc1Nc1nc(NC2CCCCC2)c2nc[nH]c2n1 | 1710

====

Items are presented alongside their recorded concentration at 8 h.
experiment: Plasma concentration in CD-1 mouse at 10 mg/kg, po measured at 8 hrs; type: ADME, organism-based; set-up: dose 10 mg/kg, route oral

chemical.smiles | concentration at 8 h (ng/mL)
COc1cc(N2CCC(N3CCOCC3)CC2)ccc1Nc1nc(NC2CCCCC2)c2nc[nH]c2n1 | 44.2
COc1cc(N2CCC(CC(=O)N3CCOCC3)CC2)ccc1Nc1nc(NC2CCCCC2)c2nc[nH]c2n1 | 20.9
COc1cc(N2CCN(S(=O)(=O)CCCN3CCOCC3)CC2)ccc1Nc1nc(NC2CCCCC2)c2nc[nH]c2n1 | 17.5
COc1cc(N2CCC(CC(=O)N3CCN(C)CC3)CC2)ccc1Nc1nc(NC2CCCCC2)c2[nH]cnc2n1 | 39.9
COc1cc(N2CCN(Cc3ccccn3)CC2)ccc1Nc1nc(NC2CCCCC2)c2nc[nH]c2n1 | 2.9
COc1cc(N2CCC(C(=O)N3CCOCC3)CC2)ccc1Nc1nc(NC2CCCCC2)c2nc[nH]c2n1 | 1.68
COc1cc(N2CCC(CC(=O)N3CCCC3)CC2)ccc1Nc1nc(NC2CCCCC2)c2nc[nH]c2n1 | 69.2
COc1cc(N2CCC(CN3CCOCC3)CC2)ccc1Nc1nc(NC2CCCCC2)c2nc[nH]c2n1 | 187

Each recorded value in this set is attributed to ChEMBL document CHEMBL2046298.
